Attribution: paper PMC3849266

method_description: Biodistribution and in vivo binding specificity in PC-3 tumor-bearing BALB/c nu/nu mice
experimental_context: male, BALB/c nu/nu, mouse, tumor (PC-3 xenograft), iv, 45 pmol, total radioactivity, male BALB/c nu/nu mice with PC-3 xenografts, 45 pmol i.v., 3 h p.i.; read-out: Tumor uptake
readout: tissue uptake at 3 h

- compound: "CC(C)C[C@H](NC(=O)C[C@H](O)[C@H](CC(C)C)NC(=O)[C@H](Cc1c[nH]cn1)NC(=O)CNC(=O)[C@@H](NC(=O)[C@H](C)NC(=O)[C@H](Cc1c[nH]c2ccccc12)NC(=O)[C@H](CCC(N)=O)NC(=O)[C@@H](Cc1ccccc1)NC(=O)COCCOCCNC(=O)CN1CCN(CC(=O)O)CCN(CC(=O)O)CC1)C(C)C)C(N)=O [[^18F]AlF-NOTA-P2-RM26]"
  readout: "tissue uptake at 3 h"
  result: "5.5 %ID/g"
